Molecular target: T1, Human ANGPTL4(26-406)-FLAG-His6-Avi (human, UniProt Q9BY76 24-406, biotin on the C-terminal Avi tag in the biotinylated preparations (immobilised form in SET, ELISA and Octet))
T1 construct: also called full-length human ANGPTL4; hANGPTL4
T1 sequence: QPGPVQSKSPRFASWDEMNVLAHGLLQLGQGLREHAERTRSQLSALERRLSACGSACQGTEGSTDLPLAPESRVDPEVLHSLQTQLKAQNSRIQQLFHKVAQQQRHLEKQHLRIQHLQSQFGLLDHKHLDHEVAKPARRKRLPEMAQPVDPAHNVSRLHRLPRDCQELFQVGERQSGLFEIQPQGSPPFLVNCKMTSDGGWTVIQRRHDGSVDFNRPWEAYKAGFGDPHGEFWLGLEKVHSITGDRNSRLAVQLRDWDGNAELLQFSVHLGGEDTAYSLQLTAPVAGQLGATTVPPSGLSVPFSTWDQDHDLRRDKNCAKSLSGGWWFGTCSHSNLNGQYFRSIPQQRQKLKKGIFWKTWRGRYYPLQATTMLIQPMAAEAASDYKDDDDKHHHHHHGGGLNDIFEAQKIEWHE
Experiment: SET assay
measuredAttribute: Kd (pM)
Response body: numeric value in pM, unit text excluded.

| binder | Kd [pM] |
| --- | --- |
| MOR023403 (antibody, human IgG1, kappa, V domains shown, as MOR023400: built on MOR022771, limits derived; the printed CDR is one residue shorter than the parent stretch) VH: EVQLLESGGGLVQPGGSLRLSCAASGFTFSSYWMHWVRQAPGKGLEWVSVINLGSQAKYAGSVKGRFTISRDNSKNTLYLQMNSLRAEDTAVYYCARDSYIYDLHWGFDNWGQGTLVTVSS VL: DIQMTQSPSSLSASVGDRVTITCRASQDISSYLNWYQQKPGKAPKLLIYAASRLQSGVPSRFSGSGSGTDFTLTISSLQPEDFATYYCQQSYTHPYTFGQGTKVEIKR | 3 |
| MOR023418 (antibody, V domains shown, as MOR023415: built on parent Fab MOR021798, limits derived) VH: QVQLLESGGGLVQPGGSLRLSCAASGFTFSDYALHWVRQAPGKGLEWVSRITYTGQYKYYADSVKGRFTISRDNSKNTLYLQMNSLRAEDTAVYYCAREHYYSSPMGGVAVDNWGQGTLVTVSS VL: DIVLTQPPSVSGAPGQRVTISCSGSSSNIGYNTVSWYQQLPGTAPKLLIYSNNIRPSGVPDRFSGSKSGTSASLAITGLQAEDEADYYCSSWDFLIKSLVFGGGTKLTVL | 19 |
| MOR023416 (antibody, V domains shown, as MOR023415: built on parent Fab MOR021798, limits derived) VH: QVQLLESGGGLVQPGGSLRLSCAASGFTFSDYALHWVRQAPGKGLEWVSRITYTGLYTYYADSVKGRFTISRDNSKNTLYLQMNSLRAEDTAVYYCAREHYYSSPMGGVAVDNWGQGTLVTVSS VL: DIVLTQPPSVSGAPGQRVTISCSGSSSNIGYNTVSWYQQLPGTAPKLLIYSNNIRPSGVPDRFSGSKSGTSASLAITGLQAEDEADYYCSSWDFLIKSLVFGGGTKLTVL | 1 |

Please examine the following record next.
Query block: Find the recorded Kd belonging to MOR023407 (antibody, human IgG1, kappa, V domains shown, built on the parent antibody for IgG conversion MOR022771 with residues 89-96 of the light chain replaced; Parent Fab MOR021830 has another HCDR2 (D53) and Q1 in the VH) VH: EVQLLESGGGLVQPGGSLRLSCAASGFTFSSYWMHWVRQAPGKGLEWVSGISYSGSSTNYADSVKGRFTISRDNSKNTLYLQMNSLRAEDTAVYYCARDSYIYDLHWGFDNWGQGTLVTVSS VL: DIQMTQSPSSLSASVGDRVTITCRASQDISSYLNWYQQKPGKAPKLLIYAASRLQSGVPSRFSGSGSGTDFTLTISSLQPEDFATYYCFQMYYHPYTFGQGTKVEIKR and report it.
Result block: 1
